Biological target: T1, ProQ (minimal ProQ, FinO domain with short N- and C-terminal extensions) (Neisseria meningitidis, UniProt Q9JY98 1-141)
T1 sequence: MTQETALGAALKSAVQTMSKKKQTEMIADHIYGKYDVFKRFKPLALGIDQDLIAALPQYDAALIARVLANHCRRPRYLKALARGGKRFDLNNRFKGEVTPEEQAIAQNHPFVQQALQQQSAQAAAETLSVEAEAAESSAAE
Experiment: EMSA; max bound 58%; 25 mM Tris pH 7.5, 150 mM NaCl, 5% glycerol, 1 mM MgCl2, 1 nM 32P-RNA, ProQ up to 50 nM, 30 min at room temperature; 6% native gel at 4 C
Conditions: protein: recombinant; tags: N-terminal His6-TEV, cleaved; one extra N-terminal Ser remains; label: 5'-32P; terminator hairpin, 4-U tail
Measured quantity: Kd (nM)
Respond numerically; units are nM and should not be typed.

Request: # input binder: GGGAUUUCAGUUUGAAAGCAAAGCCUCCGACUGUUCGGAGGCUUUU (structured_RNA) [rpmG-U4] ; wanted: its Kd
Result: 2.6
